test system: P12-Ichikawa; assay: cell viability relative to DMSO control; higher = less cytotoxic; conditions: HPLM + 10% dialyzed FBS; 48 h; 46.1 µM
experimental-endpoint: cell viability

# compound, observed
rows = [
    ("CN1CCCC(CC1)N2\\N=C(CC3=CC=C(Cl)C=C3)/C4=C(C=CC=C4)C2=O (centres undefined)", "51.9%"),
    ("CCN(CC)CCCCNc1ncc2c(n1)N(C)C(=O)N(c1c(Cl)c(OC)cc(OC)c1Cl)C2", "11.8%"),
    ("CCCCC(C=O)NC(=O)C(CC(C)C)NC(=O)OCc1ccccc1 (centres undefined)", "70.5%"),
    ("CC1(N2CCC(n3c([C@@H]4CCCNC4)nc4ccccc43)CC2)CCCCCCC1", "55.6%"),
    ("C=CC(=O)Nc1cccc(Nc2nc(NC3CCC(N(C)C)CC3)nc3c2ncn3C(C)C)c1 (centres undefined)", "5.85%"),
    ("CC(C)N(CC[C@H](c1ccccc1)c1cc(CO)ccc1O)C(C)C", "135%"),
    ("Cn1c(=O)n(-c2ccc(C(C)(C)C#N)cc2)c2c3cc(-c4cnc5ccccc5c4)ccc3ncc21", "17.6%"),
    ("CNC[C@H](O)c1cccc(O)c1", "109%"),
    ("O=C(Nc1ncc(-c2cc(C(F)F)nn2-c2c(Cl)cccc2Cl)s1)C1CC1", "14.6%"),
]
